system: A3-KAW; assay: cells; assay type: functional, cell-based; conditions: Homo sapiens;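 also: growth inhibition of human A3-KAW cells, read out with a cell viability assay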
Description: SANGER: Inhibition of human A3-KAW cell growth in a cell viability assay.
One threshold, 30 nM, splits the recorded IC50 values: lower ones are 1 (yes), equal or higher ones are 0 (no).

Mol	Assigned Category
Cn1c(=O)n(-c2ccc(C(C)(C)C#N)cc2)c2c3cc(-c4cnc5ccccc5c4)ccc3ncc21	1 (yes)
CC(C)=CC[C@@H](O)C1=CC(=O)c2c(O)ccc(O)c2C1=O	0 (no)
CCCS(=O)(=O)Nc1ccc(F)c(C(=O)c2c[nH]c3ncc(Cl)cc23)c1F	0 (no)
CC[C@@]1(O)C(=O)OCc2c1cc1n(c2=O)Cc2cc3ccccc3nc2-1	1 (yes)
NC(=O)c1ncn([C@@H]2O[C@H](COP(=O)(O)O)[C@@H](O)[C@H]2O)c1N	0 (no)
C/C=C(/C)C(=O)O[C@H]1C(C)=C2[C@H]([C@@H]1OC(=O)CCCCCCC)[C@@](C)(OC(C)=O)C[C@H](OC(=O)CCC)[C@@]1(O)[C@H]2OC(=O)[C@@]1(C)O	1 (yes)

====

system: SW1417; assay: cells; type: functional, cell-based; conditions: Homo sapiens
Description: SANGER: Inhibition of human SW1417 cell growth in a cell viability assay.
Catalogue of IC50 values

Compound	IC50
CC(O)(CS(=O)(=O)c1ccc(F)cc1)C(=O)Nc1ccc(C#N)c(C(F)(F)F)c1 (stereo unspecified) [BICALUTAMIDE]	> 1020 nM
CC[C@]1(O)C[C@@H]2CN(CCc3c([nH]c4ccccc34)[C@@](C(=O)OC)(c3cc4c(cc3OC)N(C)[C@H]3[C@@](O)(C(=O)OC)[C@H](OC(C)=O)[C@]5(CC)C=CCN6CC[C@]43[C@@H]65)C2)C1	> 100 nM
C[C@]1(c2nc3c(C(N)=O)cccc3[nH]2)CCCN1	> 5000 nM
N#C/C(=C1/Nc2ccccc2S1)c1ccnc(NCCc2cccnc2)n1	> 8000 nM
CCNC(=O)c1noc(-c2cc(C(C)C)c(O)cc2O)c1-c1ccc(CN2CCOCC2)cc1	> 256 nM
O=c1cc(N2CCOCC2)oc2c(-c3cccc4c3sc3ccccc34)cccc12	> 2000 nM

====

Catalogue of pIC50 values
test system: PSN1; test: cells; type: functional, cell-based; conditions: Homo sapiens;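 also: suppression of growth of human PSN1 cells, read out by a cell viability assay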
Description: SANGER: Inhibition of human PSN1 cell growth in a cell viability assay.
pIC50: −log10 of the molar value.

Mol	System Under Test	pIC50
CC(=O)c1c(C)c2cnc(Nc3ccc(N4CCNCC4)cn3)nc2n(C2CCCC2)c1=O	PSN1	< 5.40
O=c1[nH]c2ccccc2n1C1CCN(Cc2ccc(-c3nc4cc5[nH]cnc5cc4nc3-c3ccccc3)cc2)CC1	PSN1	< 5.59
N#C/C(=C1/Nc2ccccc2S1)c1ccnc(NCCc2cccnc2)n1	PSN1	< 5.10
CC(C)=CC[C@@H](O)C1=CC(=O)c2c(O)ccc(O)c2C1=O	PSN1	< 4.80
NC(=O)c1ncn([C@@H]2O[C@H](COP(=O)(O)O)[C@@H](O)[C@H]2O)c1N	PSN1	2.71
COc1cc(Nc2c(C#N)cnc3cc(OCCCN4CCN(C)CC4)c(OC)cc23)c(Cl)cc1Cl	PSN1	< 5.70
Fc1cc(-c2cc[nH]/c(=N/c3ccc(-n4cnc(N5CCOCC5)n4)cc3)n2)cc(N2CCOCC2)c1	PSN1	< 5.29
CCCS(=O)(=O)Nc1ccc(F)c(C(=O)c2c[nH]c3ncc(Cl)cc23)c1F	PSN1	< 5.00
Cc1[nH]c(/C=C2\C(=O)Nc3ccc(S(=O)(=O)Cc4c(Cl)cccc4Cl)cc32)c(C)c1C(=O)N1CCC[C@@H]1CN1CCCC1	PSN1	< 5.70
